Test system: DU-145
Assay: Cytotoxicity against human DU145 cells assessed as inhibition of cell viability after 24 hrs by CCK-8 assay
Type: functional, cell-based
Conditions: DU-145, 24 h
OUTCOME_MEASURE: pIC50
Please express pIC50 as -log10 of the molar concentration.

Q: Lab note: need pIC50 for `COc1cc(OC)cc(OCc2ccc(CCN3CCN(c4cc(C)ccc4C)CC3)cc2)c1` on DU-145, anyone have it?
A: 4.56

Q: One more compound: `COc1cc(OC)cc(OCc2ccc(CCN3CCN(c4cc(Cl)ccc4OC)CC3)cc2)c1`
A: 4.57

Q: // repeat for COc1ccccc1N1CCN(CC(O)COc2cccc3ccccc23)CC1 (stereo unspecified) and report
A: 4.46

Q: Entry to check: `COc1cc(OC)cc(OCc2ccc(CCN3CCN(c4ccc(F)cc4F)CC3)cc2)c1`
A: 4.62

Q: Do the same for `COc1cc(OC)cc(OCc2ccc(CCN3CCN(c4ccccc4C(F)(F)F)CC3)cc2)c1` please
A: 4.41

Q: What would you report for `COc1cc(OC)cc(OCc2ccc(CCN3CCN(c4cccc(C)c4)CC3)cc2)c1` ?
A: 4.54

Q: Also need `COc1cc(OC)cc(OCc2ccc(CCN3CCN(c4ccccc4S(C)(=O)=O)CC3)cc2)c1` , thanks.
A: 5.11

Q: Next record, please: `COc1cc(OC)cc(OCc2ccc(CCN3CCN(c4cc(Cl)ccc4C)CC3)cc2)c1`
A: 4.55

Q: Try this compound too: `COc1cc(OC)cc(OCc2ccc(CCN3CCN(c4ccc(Cl)cc4)CC3)cc2)c1`
A: 4.90

Q: Follow-up item: `COc1cc(OC)cc(OCc2ccc(CCN3CCN(c4ccccc4C)CC3)cc2)c1`
A: 4.72

Q: Next up: `COc1cc(OC)cc(OCc2ccc(CCN3CCN(c4ccc(C)cc4)CC3)cc2)c1`
A: 4.62

Q: Similarly, `COc1ccc(N2CCN(CCc3ccc(COc4cc(OC)cc(OC)c4)cc3)CC2)cc1` ?
A: 4.72

Q: How about this compound: `COc1cc(OC)cc(OCc2ccc(CCN3CCN(c4ccccn4)CC3)cc2)c1`
A: 4.78

Q: Try `COc1cc(OC)cc(OCc2ccc(CCN3CCN(c4cccc(Cl)c4)CC3)cc2)c1` next.
A: 4.57

Q: One more compound: `COc1cc(OC)cc(OCc2ccc(CCN3CCN(c4ccc(Br)cc4)CC3)cc2)c1`
A: 4.53

Q: Now consider `COc1cc(OC)cc(OCc2ccc(CCN3CCN(c4ccc(C#N)cc4)CC3)cc2)c1` and answer again.
A: 4.33

The origin of these recorded values is ChEMBL document CHEMBL3351488.
